Target chain: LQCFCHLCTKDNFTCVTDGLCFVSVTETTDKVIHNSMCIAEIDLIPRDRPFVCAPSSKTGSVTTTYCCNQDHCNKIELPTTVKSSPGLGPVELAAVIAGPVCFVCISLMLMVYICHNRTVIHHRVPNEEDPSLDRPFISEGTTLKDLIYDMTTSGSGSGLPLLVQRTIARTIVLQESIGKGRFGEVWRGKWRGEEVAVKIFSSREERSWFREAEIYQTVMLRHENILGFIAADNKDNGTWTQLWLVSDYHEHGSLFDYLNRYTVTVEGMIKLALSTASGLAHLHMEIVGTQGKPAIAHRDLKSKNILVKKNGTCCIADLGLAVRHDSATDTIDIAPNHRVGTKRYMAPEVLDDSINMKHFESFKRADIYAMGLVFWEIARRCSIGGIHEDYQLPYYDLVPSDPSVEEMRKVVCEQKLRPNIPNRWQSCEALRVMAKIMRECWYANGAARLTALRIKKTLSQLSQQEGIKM
QUANTITY: IC50

Solved entries:
INSERT INTO measurements (line_notation, experimental_result) VALUES
  ('c1ccc(-c2cc(Nc3ccncc3)c3cccnc3n2)nc1', '< 100 nM'),
  ('CC(=O)Nc1cc(Nc2cc(-c3ccccc3F)nc3ncccc23)ncn1', '< 100 nM'),
  ('CC(C)C(=O)Nc1cc(Nc2cc(-c3cc(Cl)ccc3F)nc3ncccc23)ncn1', '< 100 nM'),
  ('Fc1ccc(-c2cc(Nc3ccncc3)c3cccnc3n2)cc1', '< 100 nM'),
  ('CC(C)(C)CCNc1cc(Nc2cc(-c3cc(Cl)ccc3F)nc3ncccc23)ncn1', '100 to 1000 nM'),
  ('CC(C)(N)CC(=O)Nc1cc(Nc2cc(-c3cc(F)ccc3F)nc3ncccc23)ncn1', '< 100 nM');

Q: # IC50 lookup, item `CN1CCC(NC(=O)c2cnccc2Nc2cc(-c3cc(Cl)ccc3F)nc3ncccc23)CC1`
A: < 100 nM

Q: # IC50 lookup, item `CC(C)Oc1cccc(-c2cc(Nc3cc(NCCN4CCCC4)ncn3)c3cccnc3n2)c1`
A: > 10000 nM

---

Target sequence: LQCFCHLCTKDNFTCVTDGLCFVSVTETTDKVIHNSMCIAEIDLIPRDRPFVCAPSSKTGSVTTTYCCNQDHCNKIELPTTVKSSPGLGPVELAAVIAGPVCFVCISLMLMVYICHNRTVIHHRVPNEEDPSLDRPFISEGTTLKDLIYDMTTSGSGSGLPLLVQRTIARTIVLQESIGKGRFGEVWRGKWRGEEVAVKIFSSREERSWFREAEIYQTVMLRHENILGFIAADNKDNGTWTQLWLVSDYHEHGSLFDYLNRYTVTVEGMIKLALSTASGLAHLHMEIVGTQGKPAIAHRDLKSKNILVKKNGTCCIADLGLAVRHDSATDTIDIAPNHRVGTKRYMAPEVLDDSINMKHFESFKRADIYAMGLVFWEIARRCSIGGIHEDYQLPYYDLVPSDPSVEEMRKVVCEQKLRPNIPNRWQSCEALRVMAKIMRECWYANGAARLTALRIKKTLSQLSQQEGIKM
Items are presented alongside their recorded IC50.

INSERT INTO measurements (line_notation, quantity, experimental_result) VALUES
  ('Fc1ccc(Cl)cc1-c1cc(-n2cc(Br)c3cnccc32)c2cccnc2n1', 'IC50', '< 100 nM'),
  ('Fc1cc(F)c(-c2cc(Nc3ccncc3)c3cccnc3n2)cc1F', 'IC50', '< 100 nM'),
  ('CN1CCN(c2nccc(Nc3cc(-c4cc(Cl)ccc4F)nc4ncccc34)n2)CC1', 'IC50', '> 10000 nM');

Q: # IC50 lookup, item `Fc1ccc(Cl)cc1-c1cc(Cc2ccncc2)c2cccnc2n1`
A: 1000 to 10000 nM

Q: # IC50 lookup, item `CC(C)(C)OC(=O)NCCCC(=O)Nc1cc(Nc2cc(-c3cc(Cl)ccc3F)nc3ncccc23)ncn1`
A: < 100 nM

Q: # IC50 lookup, item `CN(C)CCNc1cc(Nc2cc(-c3cc(Cl)ccc3F)nc3ncccc23)ncn1`
A: 100 to 1000 nM

Q: # IC50 lookup, item `CCN1CCC(CNc2cc(Nc3cc(-c4cc(F)ccc4F)nc4ncccc34)ncn2)CC1`
A: < 100 nM

Q: # IC50 lookup, item `CCN1CCN(C(=O)c2cnccc2Nc2cc(-c3cc(Cl)ccc3F)nc3ncccc23)CC1`
A: 1000 to 10000 nM

---

Protein target, amino acids: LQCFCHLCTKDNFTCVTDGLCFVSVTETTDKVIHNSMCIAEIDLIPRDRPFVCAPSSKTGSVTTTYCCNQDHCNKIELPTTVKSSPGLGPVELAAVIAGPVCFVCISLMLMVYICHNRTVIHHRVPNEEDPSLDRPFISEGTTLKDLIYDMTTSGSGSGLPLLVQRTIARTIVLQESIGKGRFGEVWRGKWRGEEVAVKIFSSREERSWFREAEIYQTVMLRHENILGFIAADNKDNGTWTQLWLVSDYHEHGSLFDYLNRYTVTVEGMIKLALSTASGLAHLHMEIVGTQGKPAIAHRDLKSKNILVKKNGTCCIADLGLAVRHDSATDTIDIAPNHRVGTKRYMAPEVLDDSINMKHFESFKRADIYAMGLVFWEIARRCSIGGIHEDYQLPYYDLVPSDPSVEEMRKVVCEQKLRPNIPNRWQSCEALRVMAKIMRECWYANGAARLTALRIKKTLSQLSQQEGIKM
pIC50: −log10 of the molar value.
Items are presented alongside their recorded pIC50.

Solved entries:
INSERT INTO measurements (line_notation, experimental_result) VALUES
  ('NCCCC(=O)Nc1cc(Nc2cc(-c3cc(Cl)ccc3F)nc3ncccc23)ncn1', '> 7.00'),
  ('CC(=O)Nc1cc(Nc2cc(-c3cc(Cl)ccc3F)nc3ncccc23)ccn1', '> 7.00'),
  ('Fc1ccc(F)c(-c2cc(-n3ccc4cnccc43)c3cccnc3n2)c1', '> 7.00'),
  ('c1cnc2nc(-c3cnccn3)cc(Nc3ccncc3)c2c1', '5.00 to 6.00');

Now consider a different compound.
Q: # pIC50 lookup, item `CN(C)CCCOc1cnccc1Nc1cc(-c2cc(Cl)ccc2F)nc2ncccc12`
A: > 7.00

---

# SYSTEM_UNDER_TEST: GST-ALK5 (Homo sapiens)
# Sequence (P36897 34-503): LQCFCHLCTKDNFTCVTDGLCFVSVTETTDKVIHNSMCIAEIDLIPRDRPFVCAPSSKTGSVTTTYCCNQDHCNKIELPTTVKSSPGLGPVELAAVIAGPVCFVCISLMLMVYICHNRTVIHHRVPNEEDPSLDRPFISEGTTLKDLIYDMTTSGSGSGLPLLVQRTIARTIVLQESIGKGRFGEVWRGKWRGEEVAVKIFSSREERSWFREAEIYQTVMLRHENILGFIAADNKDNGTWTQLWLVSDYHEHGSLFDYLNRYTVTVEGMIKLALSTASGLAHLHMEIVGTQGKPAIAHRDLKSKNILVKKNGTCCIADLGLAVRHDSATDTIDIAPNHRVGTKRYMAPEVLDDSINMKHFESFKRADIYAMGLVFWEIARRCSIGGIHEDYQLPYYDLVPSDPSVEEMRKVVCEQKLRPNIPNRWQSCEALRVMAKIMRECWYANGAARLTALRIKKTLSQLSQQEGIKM
QUANTITY: IC50

Solved entries:
INSERT INTO assay_data (line_notation, quantity, experimental_result) VALUES
  ('Fc1ccc(Cl)cc1-c1cc(Nc2ccnc(-c3cccnc3)n2)c2cccnc2n1', 'IC50', '1000 to 10000 nM'),
  ('CC(C)(C)C(=O)Nc1cc(Nc2cc(-c3cc(Cl)ccc3F)nc3ncccc23)ncn1', 'IC50', '100 to 1000 nM');

Q: # IC50 lookup, item `CN(C)CCNC(=O)c1cc(Nc2cc(-c3cc(F)ccc3F)nc3ncccc23)ccn1`
A: 1000 to 10000 nM

Q: # IC50 lookup, item `Nc1cc(Nc2cc(-c3ccccc3F)nc3ncccc23)ncn1`
A: < 100 nM

Q: # IC50 lookup, item `Cn1cc(-c2cc(Nc3ccncc3)c3cccnc3n2)cn1`
A: 1000 to 10000 nM

---

Protein target, amino acids: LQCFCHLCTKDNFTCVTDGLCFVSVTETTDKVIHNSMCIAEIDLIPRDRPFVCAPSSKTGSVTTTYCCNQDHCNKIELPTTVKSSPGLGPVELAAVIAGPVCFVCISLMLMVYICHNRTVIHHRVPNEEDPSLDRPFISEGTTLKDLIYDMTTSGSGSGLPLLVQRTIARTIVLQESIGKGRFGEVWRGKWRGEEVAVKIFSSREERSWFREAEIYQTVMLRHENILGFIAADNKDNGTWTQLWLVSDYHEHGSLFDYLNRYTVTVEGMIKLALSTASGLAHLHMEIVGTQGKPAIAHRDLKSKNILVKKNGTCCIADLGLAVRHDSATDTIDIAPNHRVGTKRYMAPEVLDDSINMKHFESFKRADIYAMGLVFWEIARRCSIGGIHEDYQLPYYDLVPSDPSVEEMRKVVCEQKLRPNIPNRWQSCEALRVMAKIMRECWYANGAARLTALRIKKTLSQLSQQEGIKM
pIC50: −log10 of the molar value.
QUANTITY: pIC50

INSERT INTO assay_data (compound, quantity, experimental_result) VALUES
  ('COCCNc1cc(Nc2cc(-c3cc(F)ccc3F)nc3ncccc23)ncn1 [compound 138]', 'pIC50', '6.00 to 7.00');

Q: # pIC50 lookup, item CNC(=O)c1cc(Nc2cc(-c3cc(F)ccc3F)nc3ncccc23)ccn1 [compound 118]
A: 6.00 to 7.00

Q: # pIC50 lookup, item Nc1cc(Nc2cc(-c3cc(F)ccc3F)nc3ncccc23)ncn1 [compound 106]
A: > 7.00

Q: # pIC50 lookup, item N#Cc1ccccc1-c1cc(Nc2ccncc2)c2cccnc2n1 [compound 61]
A: 6.00 to 7.00

Q: # pIC50 lookup, item CNC(=O)c1cnccc1Nc1cc(-c2cc(Cl)ccc2F)nc2ncccc12 [compound 42]
A: > 7.00
